experiment: soluble on expression in E. coli; label from the status in PepcDB or PDB records
resultType: soluble on expression in E. coli

{"columns": ["chainSequence", "resultType", "valueObserved"],
 "data": [
  ["SAGTGLVAGEVVVDALPYFDQGYEAPGVREAAAALVEEETRRYRPTKNYLSYLTAPDYSAFETDIMRNEFERLAARQPIELLSMKRYELPAPSSGQKNDITAWQECVNNSMAQLEHQAVRIENLELMSQHGCNAWKVYNENLVHMIEHAQKELQKLRKHIQDLNWQRKNMQLTAGSKLREMESNWVSLVSKNYEIERTIVQLENEIYQIKQQHGEANKENIRQDF", "soluble on expression in E. coli", "soluble"],
  ["MSLYRLLIVEDEHLIRKWLRYAIDYQSLNILVVGEAKDGKEGAQLIQEEQPDIVLSDINMPIMTAFDMFEATKGQSYAKIILSGYADFPNAQSAIHYGVLEFLTKPLEKQALIDCLKTIMARIEEHKEKHLQEHTELYLPLPQANDQVPEVIKDMLAWIHSHFHGKIVISQLAHDLGYSESYLYTVTKKHLHITLSDYINQYRINQAIQLMFREPDLMVYQIAEAVGIYDYRYFDRVFKKYLGQTVKAFKEEHIFKQMDEGHHHHHH", "soluble on expression in E. coli", "soluble"],
  ["MKLRSWEFYDRIARAYDSMYETPKWKLYHRLIGSFLEEYLKNPCRVLDLGGGTGKWSLFLQERGFEVVLVDPSKEMLEVAREKGVKNVVEAKAEDLPFPSGAFEAVLALGDVLSYVENKDKAFSEIRRVLVPDGLLIATVDNFYTFLQQMIEKDAWDQITRFLKTQTTSVGTTLFSFNSYAFKPEDLDSLEGFETVDIRGIGVMEYPDERISEREETIFRLEQELSRDRNIIWKADHIFFVLKKKRGA", "soluble on expression in E. coli", "not soluble"],
  ["MIRQLSLKDYEGVAGSALIDEIRSLGESLQGYNVRHINSTIIGGGVAEILSSLVPLMEDVGLTVNWEVLAGTTEFFHTTKLFHNGMHGQPVNITGEMLENYLAIAQKNQNLLDGDADLVVIHDQQPLGLTAFRGRTRGRWLWYCHVDPRYAVPEVWYFLAPMVATCDAAVFHLPEYARDLPVLQYFMPPAIDPLSDKLEHHHHHH", "soluble on expression in E. coli", "soluble"],
  ["MAHHHHHHMAPGVIPTVFRSERDREWAAQRFNYKKGSDDEERVARKRLLFARDRVHLPDDTVVETIRSPTEQLEELRALREHPPMHLLSEQLNSIAEESHRYAAALAAAAAAQPADPKDVASPASLRSDAAATSSLDGVALPPLPGAAAVVSSPPQVEIQFEDRSLFATAAILFRDRDDRVVRAMRFIGACGMVWKEVA", "soluble on expression in E. coli", "soluble"],
  ["EPPDGKAISDGFNLLQELSAVNRENQLTPLGRQLARLPVDPRMGRMLLEAAKQGSLQEVLIVASAMSVQDVRERPPERQQAADQAHAQWKDAD", "soluble on expression in E. coli", "not soluble"]
]}

[ask] Fill blank: measured soluble on expression in E. coli of the sequence MLAARGFFKSTRISNRFFAKKSVKNLTNDDVDVLTNPSDEYVDSFMKYHGNGRAVFKREDLAQWRDSFPDYKFKVISLKGAPRVIATAHLCTFRPIDPSINKSIMFMGFGWIDPGFRSPGTAKLQNDMCRVEMDREDDNIVSQINQPAKNFWHKLSKRKEFLDLGHKAGDVGYKTFYSAHDVVLPENLDLSGITVKNAREVPKRDIINYDQTIHPYHREKYIISHMYDRDGFGKVAYDEEGNVIGIGQAVIYENRKDCNLGPIYAENTRVAQAMFAEILKDIKASEKTVVSFEVRSGQLNKDSFCWLTPFLTHKPTRSHVCNLVYTDCVPENIDFSKVYSPTHAQLFMV is ____.
[reply] not soluble

Entry source: the DeepSol protein solubility set
